# assay system: CLDN16
# assay name: pooled miR-30 sensor sort-seq; sequence = guide strand; also: reference of the scale not given here
# test conditions: shRNA
Below, each entry is listed alongside its reported sensor-assay potency score (higher = more potent).
Just the number, please.

Examples from the recorded data:
sequence chain | recorded measurement
TTTACTTTTTCTCACGCCCTGC | -0.567
TACACATCAACAGCATACCACA | -1.23
TACATTTTGGCCGTCTCTGTGC | -0.539
TAGAATATCTGCAGTAATCATC | -0.742
AAGAATAATACAAACAGGCTGT | 0.277

sequence TTTGTGACGCATTCCCACCAGA , sensor-assay potency score (higher = more potent) observed: -0.822

Reported sensor-assay potency score (higher = more potent) for TTAAAAAGATATAAGCAGCAGG was -0.367

Recorded sensor-assay potency score (higher = more potent) (sequence AATATCTGCAGTAATCATCAAC ): -0.661

====

Entries and their sensor-assay potency score (higher = more potent) values follow.
# assay system: SLC38A11
# assay name: pooled miR-30 sensor sort-seq; sequence = guide strand
# test conditions: shRNA
Just the number, please.

Completed entries (count: 8):
sequence chain | recorded measurement
TTCTAGAGAACTGTAAACTAAG | -0.917
TCAAGTATCCACATGTAGCAAA | -0.803
TTGTGTTGTCTGCTGAACATGA | -0.294
TTTATCAATAAAACAAGGGAAA | -1.2
TACAACAATGTGGAAAACCGAT | -0.853
TAATTTTCAAATAAGTCCCCTT | 0.231
TCTGCTGAACATGAGACTCTGA | 0.182
TAAACCTGTAGAGATGAGGGAG | 0.481

The sequence TTTTATTGACCAAAGACTGGTA showed sensor-assay potency score (higher = more potent) equal to -0.145

Documented sensor-assay potency score (higher = more potent) of TTAAAGTAGAAAGTTGTGTTGT : 0.823

====

# assay system: DPP3
# assay name: pooled miR-30 sensor sort-seq; sequence = guide strand
# test conditions: shRNA
property: sensor-assay potency score (higher = more potent)
Lab note: write the figure by itself, no unit.

sequence chain | assay system | recorded measurement
TTGGTGTCACCAAAGGACTTGT | DPP3 | -0.525

Here AAGATCTCCAGCACTTGCGGGT was tested on DPP3, and its sensor-assay potency score (higher = more potent) came to -0.379

Param item: TTGTCCTTCTCAAAGGTTGGGG ; param system: DPP3; output sensor-assay potency score (higher = more potent): -0.0545

Considering TTGTAGTTGCCCATGTTGGAGT , its sensor-assay potency score (higher = more potent) with DPP3 was recorded as -1.16

====

The following sequences are listed with their measured sensor-assay potency score (higher = more potent) values.
# assay system: CD27
# assay name: pooled miR-30 sensor sort-seq; sequence = guide strand
# test conditions: shRNA
Enter the number alone.

Before answering, review these 8 worked examples.
sequence chain | recorded measurement
TTCTATGCTGGTCACAGTCCTT | -1.06
TTGGAAGAGGATCACACTCGGT | -0.746
TGAAAACAAGGAACATTCCAGA | -0.449
TTTCCTTCGTTGATGGAGGAAC | -0.814
TTGTTTGATCTATATTTCCTTC | -0.475
TTTGATCTATATTTCCTTCGTT | 0.393
TAGCATGTGGGTCTTTCGCAGC | -0.998
TCTGGCAGCACAGCTTTCCCTG | -1.15

The sequence TGTAACGACAAGGCTCTGCAGG showed sensor-assay potency score (higher = more potent) equal to -0.28

Please fill in: sensor-assay potency score (higher = more potent) reported for TCACACTCGGTGCACTCCTTGT = -1.13

sensor-assay potency score (higher = more potent) for AAAACAAGGAACATTCCAGAGA is -0.821

Noted for TAAAATCGGAGCTGCACAGGGA : its sensor-assay potency score (higher = more potent) reads 0.114

Summary for this sequence, TTGATCTATATTTCCTTCGTTG : sensor-assay potency score (higher = more potent) is -0.282

The sequence TCTATGCTGGTCACAGTCCTTC showed sensor-assay potency score (higher = more potent) equal to -0.827

Entry TTTCGCAGCAGGAAGTGTGTTT , sensor-assay potency score (higher = more potent) reported as 0.0361

sensor-assay potency score (higher = more potent) recorded for this sequence, TATATTTCCTTCGTTGATGGAG , is -0.211
